Cited source for all entries: PubChem BioAssay AID624483

# PROCEDURE DETAILS: compound fluorescence in toxin protease inhibitor counterscreen, primary screen, artefact control for toxin protease inhibitor project, biochemical, multiplex microsphere, HTS (AID 624483)
# CONDITION INFO: compound autofluorescence counterscreen, microsphere flow cytometry
Among all 360,000 compounds or so, about 11,000 (3.1%) were called active. Another 2% or so got no clear call; they are omitted. Rule as the data show it: active = fluorescence intensity above about 16000; inconclusive = no clear call, values can overlap the other calls; inactive = below that. This excerpt belongs to a sample that is enriched for actives.
The reply should name one outcome from true (1) (active), false (0) (inactive)

For "CCOc1ccc(N(CC(=O)Nc2cccc(OC)c2)S(C)(=O)=O)cc1" , which call appears in the assay record?
false (0)

For "Cc1ccc(NC(=O)Nc2ccc3oc(C)nc3c2)cc1" , which call appears in the assay record?
false (0)

For "CCCOc1ccc(F)cc1-c1cc(C(=O)NCc2ccc(F)cc2)[nH]n1" , which call appears in the assay record?
false (0)

For "CN(c1cccc(NC(=O)Nc2ccc(Cl)cc2)c1)S(C)(=O)=O" , which call appears in the assay record?
true (1)

For "Cc1ccc(N(CC(=O)Nc2cccc(N(C)S(C)(=O)=O)c2)S(C)(=O)=O)cc1" , which call appears in the assay record?
true (1)

For "O=C(O)c1ccccc1Cc1ccc(F)c2ccccc12" , which call appears in the assay record?
false (0)

For "COc1cccc(-c2cc3nc(NCCOc4ccccc4Cl)n(C)c(=O)c3s2)c1" , which call appears in the assay record?
false (0)

For "Cc1ccc2nc(-c3ccc(NC(=O)c4cccnc4)cc3)oc2c1" , which call appears in the assay record?
false (0)

For "O=C(Nc1cccc2c1CCCC2)c1ccc(F)cc1" , which call appears in the assay record?
false (0)

For "Cc1ccc(C)c(NC(=O)c2ccc3nccnc3c2)c1" , which call appears in the assay record?
false (0)

For "Cc1ccc(F)cc1NC(=O)c1cccc(N(C)C)c1" , which call appears in the assay record?
true (1)

###

Please go through the items and note down their fluorescence intensity.
# PROCEDURE DETAILS: compound fluorescence in toxin protease inhibitor counterscreen, primary screen, artefact control for toxin protease inhibitor project, biochemical, multiplex microsphere, HTS (AID 624483)
# CONDITION INFO: compound autofluorescence counterscreen, microsphere flow cytometry; stronger effect = higher value
Hit rate of the full screen: of about 360,000 compounds, about 11,000 (3.1%) were called active. Inconclusive results (about 2%) are left out. What follows is part of a selection rich in actives, with near analogues and random picks from the rest.

"COc1ccc(S(=O)(=O)N(C)C)cc1NC(=O)CSc1ncccn1" yielded fluorescence intensity of 2020 (inactive)

"O=C(CC(=O)c1cccnc1)c1ccccc1" yielded fluorescence intensity of 3800 (inactive)

"Cc1noc(C)c1C(=O)Nc1ccccn1" yielded fluorescence intensity of 22800 (active)

"CC(=O)N(C1=NCCCS1)c1ccccc1F" yielded fluorescence intensity of 24900 (active)

"COc1ccc(OCCCCN2CCC(C)CC2)cc1" yielded fluorescence intensity of 3010 (inactive)

"c1ccc(C[C@H]2CNCCN2CCC23CC4CC(CC(C4)C2)C3)cc1" yielded fluorescence intensity of 3210 (inactive)

COc1ccc(-c2cc3nc(C)c(CCC(=O)NC(C)CCc4ccco4)c(C)n3n2)c(OC)c1 (stereo not drawn) yielded fluorescence intensity of 3850 (inactive)

"CS(=O)(=O)N(CC(=O)N1CCOCC1)c1cccc(Cl)c1Cl" yielded fluorescence intensity of 4130 (inactive)

"COCCCn1c(SCc2cccc(OC)c2)nc2cc(OC)c(OC)cc2c1=N" yielded fluorescence intensity of 23400 (active)

"CCOc1ccc(C(=O)COC(=O)c2ccc(-n3cnnn3)cc2)cc1" yielded fluorescence intensity of 5640 (inactive)

"COc1ccc(-n2cnnc2SCC(=O)Nc2cccc(S(N)(=O)=O)c2)cc1" yielded fluorescence intensity of 5460 (inactive)

CCOC(=O)C1=C(CNC2CCCCC2)NC(=O)NC1c1cc(C)ccc1C (stereo not drawn) yielded fluorescence intensity of 4280 (inactive)

"CCn1c(O)c2ccc(C(=O)N=NC(=O)c3cccnc3)cc2c1O" yielded fluorescence intensity of 22400 (active)

"CCc1nc2c(OCCOc3ccccc3)cccn2c1N(C=O)Cc1ccc(OC)cc1" yielded fluorescence intensity of 3280 (inactive)

"Cc1cc(OCC(=O)N(C)c2c(N)n(Cc3ccccc3)c(=O)[nH]c2=O)c(C(C)C)cc1Cl" yielded fluorescence intensity of 5120 (inactive)

CCC1=[N+]([O-])C(C)(/C(C)=N\O)N(O)C1(C)C (stereo not drawn) yielded fluorescence intensity of 9530 (inactive)

CCOC(=O)C1=C(CN2CCc3ccccc32)NC(=O)NC1c1ccc(Cl)cc1 (stereo not drawn) yielded fluorescence intensity of 23500 (active)

"CCCc1nnc(SCC(=O)Nc2ccc(C(=O)OCC)cc2)o1" yielded fluorescence intensity of 3670 (inactive)

"Cc1c(C(=O)Nc2ccccn2)oc2ccc(Br)cc12" yielded fluorescence intensity of 5620 (inactive)

CCOC(=O)C1=C(CN2CCCCCC2)NC(=O)NC1c1cccc([N+](=O)[O-])c1 (stereo not drawn) yielded fluorescence intensity of 4620 (inactive)

"O=C(CSc1nnc(Cn2cnc3ccccc32)o1)c1ccccc1" yielded fluorescence intensity of 4020 (inactive)

Cc1noc(C)c1C(=O)NCC1COc2ccccc2O1 (stereo not drawn) yielded fluorescence intensity of 6410 (inactive)

NC(c1csc(NC(=O)Nc2ccccc2Oc2ccccc2)n1)c1ccccc1Cl (stereo not drawn) yielded fluorescence intensity of 3590 (inactive)

###

# PROCEDURE DETAILS: compound fluorescence in toxin protease inhibitor counterscreen, primary screen, artefact control for toxin protease inhibitor project, biochemical, multiplex microsphere, HTS (AID 624483)
# CONDITION INFO: compound autofluorescence counterscreen, microsphere flow cytometry; stronger effect = higher value
Screen size: about 360,000 compounds; about 11,000 (3.1%) were called active. About 2% were inconclusive and are not listed. For the sample, actives were picked, then their nearest neighbours and some compounds at random.
Rule: fulfilled for fluorescence intensity not less than 4000, not fulfilled for anything less.

Please indicate if the recorded fluorescence intensity for COc1ccc(C2=NOC3(CC(=O)N(c4ccc(Cl)cc4)C3=O)C2)c(OC)c1 (stereo not given) meets or exceeds 4000.
fulfilled

Please indicate if the recorded fluorescence intensity for "O=C(NCc1ccccc1Cl)C1CCN(S(=O)(=O)c2cccc3nonc23)CC1" meets or exceeds 4000.
not fulfilled

Please indicate if the recorded fluorescence intensity for COc1cccc(N2CCN(C3CC(=O)N(c4ccc(Cl)cc4)C3=O)CC2)c1 (stereo not given) meets or exceeds 4000.
not fulfilled

Please indicate if the recorded fluorescence intensity for "CCOC(=O)N(C)c1c(CC)nc2c(OCc3ccccc3C(=O)OC)cccn12" meets or exceeds 4000.
not fulfilled

Please indicate if the recorded fluorescence intensity for "Nc1c(-c2ccc(F)cc2)cnc2ncnn12" meets or exceeds 4000.
fulfilled

Please indicate if the recorded fluorescence intensity for "CC1(C)Cc2ccccc2-c2[nH]c(=S)[nH]c(=O)c21" meets or exceeds 4000.
fulfilled

Please indicate if the recorded fluorescence intensity for Cc1cccc(C)c1NC(=O)CN1C(=O)C(C)Oc2ccccc21 (stereo not given) meets or exceeds 4000.
fulfilled

Please indicate if the recorded fluorescence intensity for "CN1OC[C@@H]2CN(C(=O)c3cccc4ccccc34)[C@H](c3ccc(N4CCCCC4)cc3)C[C@@H]21" meets or exceeds 4000.
fulfilled

Please indicate if the recorded fluorescence intensity for "O=C(NC1CCN(C(=S)Nc2ccc(Cl)cc2)CC1)C1CCCCC1" meets or exceeds 4000.
not fulfilled

Please indicate if the recorded fluorescence intensity for "CN1CCN(c2ccncc2S(=O)(=O)N2CCCC2)CC1" meets or exceeds 4000.
not fulfilled

Please indicate if the recorded fluorescence intensity for COc1ccc(CN2CC(C(=O)NC3CCCCC3)CC2=O)cc1 (stereo not given) meets or exceeds 4000.
fulfilled

Please indicate if the recorded fluorescence intensity for "Cc1oc2c(c1C(=O)N1CCOCC1)C(=O)c1ccccc1C2=O" meets or exceeds 4000.
fulfilled

Please indicate if the recorded fluorescence intensity for CC(Oc1ccccc1F)C(=O)NN (stereo not given) meets or exceeds 4000.
not fulfilled

Please indicate if the recorded fluorescence intensity for "CCC(C)(C)c1ccc(OCC(=O)N(C)C)c(C(C)(C)CC)c1" meets or exceeds 4000.
fulfilled

Please indicate if the recorded fluorescence intensity for "O=C(Nc1sc2c(c1-c1nc3ccccc3[nH]1)CCCC2)C1CC1" meets or exceeds 4000.
not fulfilled

Please indicate if the recorded fluorescence intensity for "CCOC1=C2CN(S(=O)(=O)c3ccc(C)cc3)[C@H](c3cccs3)C[C@H]2[C@H]2C(=O)N(c3ccccc3)C(=O)[C@H]2C1" meets or exceeds 4000.
fulfilled

Please indicate if the recorded fluorescence intensity for "Cc1nccn1-c1ccc(NC(=O)[C@H]2O[C@@H](n3cnc4c(N)ncnc43)[C@H](O)[C@@H]2O)cc1" meets or exceeds 4000.
fulfilled

Please indicate if the recorded fluorescence intensity for "CC1(C)Cc2ccccc2-c2nc(CN3CCOCC3)[nH]c(=O)c21" meets or exceeds 4000.
fulfilled

Please indicate if the recorded fluorescence intensity for Cc1ccc(NC2CCCN(C(=O)CCc3cn[nH]c3)C2)cc1C (stereo not given) meets or exceeds 4000.
fulfilled

Please indicate if the recorded fluorescence intensity for "O=C(NCc1nnnn1-c1ccc(Cl)cc1)c1ccc([N+](=O)[O-])o1" meets or exceeds 4000.
not fulfilled

Please indicate if the recorded fluorescence intensity for c1ccc(C2CNCc3c2ccc2ccccc32)cc1 (stereo not given) meets or exceeds 4000.
fulfilled

Please indicate if the recorded fluorescence intensity for COc1ccc(OC)c(CN2C(=O)CCC2(C)c2nnnn2Cc2ccccc2)c1 (stereo not given) meets or exceeds 4000.
fulfilled

Please indicate if the recorded fluorescence intensity for "COc1ccccc1N1CCN(S(=O)(=O)c2ccc3c(c2)NC(=O)CS3)CC1" meets or exceeds 4000.
fulfilled

Please indicate if the recorded fluorescence intensity for "CN(C)/C=C/C(=O)c1ccccc1F" meets or exceeds 4000.
fulfilled

Please indicate if the recorded fluorescence intensity for "COc1ccccc1-c1cc(NC(C)=O)c2ncc(-c3ccc(F)cc3)n2c1" meets or exceeds 4000.
not fulfilled

Please indicate if the recorded fluorescence intensity for "Nc1ccccc1-c1nc2ccncc2[nH]1" meets or exceeds 4000.
not fulfilled

Please indicate if the recorded fluorescence intensity for "Cc1cc(Nc2ccc(C(=O)N3CCCCC3)cc2)c2cccc(C)c2n1" meets or exceeds 4000.
not fulfilled

Please indicate if the recorded fluorescence intensity for COc1ccccc1C1CC(=O)n2c(nc(-c3ccccc3)c2-c2ccccc2)S1 (stereo not given) meets or exceeds 4000.
not fulfilled

Please indicate if the recorded fluorescence intensity for "COc1ccc(NC(=O)c2oc3ccc(S(=O)(=O)N4CCOCC4)cc3c2C)cc1" meets or exceeds 4000.
fulfilled

Please indicate if the recorded fluorescence intensity for Cc1ccccc1-c1csc(C(O)c2cccc(Cl)c2)n1 (stereo not given) meets or exceeds 4000.
not fulfilled

Please indicate if the recorded fluorescence intensity for CC(Oc1ccc(F)cc1F)C(=O)/C=C/N(C)C (stereo not given) meets or exceeds 4000.
fulfilled

Please indicate if the recorded fluorescence intensity for O=S1(=O)CC(N2CCN(CCO)CC2)CN1Cc1cn(Cc2cccc(Cl)c2)nn1 (stereo not given) meets or exceeds 4000.
fulfilled

Please indicate if the recorded fluorescence intensity for CC1=C(C(=O)N2CCOCC2)CC(CC(=O)NCCCN(C)C)C(=O)N1Cc1ccc(C(C)(C)C)cc1 (stereo not given) meets or exceeds 4000.
fulfilled

Please indicate if the recorded fluorescence intensity for O=C(O)C1CCCCC1C(=O)Nc1ccc(Cl)cc1 (stereo not given) meets or exceeds 4000.
fulfilled

Please indicate if the recorded fluorescence intensity for COc1cccc(CNC(=O)C2CC(=O)N(C3CCCCCCC3)C2)c1 (stereo not given) meets or exceeds 4000.
fulfilled

Please indicate if the recorded fluorescence intensity for "COc1ccc(OC)c(Cc2nnc(CCC(=O)NC3CCCC3)o2)c1" meets or exceeds 4000.
not fulfilled

Please indicate if the recorded fluorescence intensity for O=C1CC2(CC(c3ccc(Cl)cc3)=NO2)C(=O)N1c1ccccc1 (stereo not given) meets or exceeds 4000.
fulfilled

Please indicate if the recorded fluorescence intensity for "Cc1ccccc1-c1ccc(Nc2ccc(C(=O)N3CCOCC3)cc2)nn1" meets or exceeds 4000.
fulfilled

Please indicate if the recorded fluorescence intensity for "CC(=O)N1CCN(c2cccc(C)c2C)CC1" meets or exceeds 4000.
fulfilled

Please indicate if the recorded fluorescence intensity for "CCOC(=O)c1sc(N)c(C#N)c1COC(=O)C1=COCCO1" meets or exceeds 4000.
fulfilled

Please indicate if the recorded fluorescence intensity for "CCC(CC)C(=O)N1CCN(c2cccc(C)c2C)CC1" meets or exceeds 4000.
not fulfilled

Please indicate if the recorded fluorescence intensity for "CCCn1cc(SCC(N)=O)c2ccccc21" meets or exceeds 4000.
fulfilled

Please indicate if the recorded fluorescence intensity for "CC(=O)N(OCc1ccc(OC(C)C)c(Cl)c1)C(C)=O" meets or exceeds 4000.
fulfilled

Please indicate if the recorded fluorescence intensity for CC(=O)OCC(C)n1c(=O)c2ccccc2n1C(C)=O (stereo not given) meets or exceeds 4000.
fulfilled

Please indicate if the recorded fluorescence intensity for "Cc1c(C(=O)Nc2ccccc2Cl)oc2ccc(S(=O)(=O)N3CCC4(CC3)OCCO4)cc12" meets or exceeds 4000.
fulfilled
